Cited source for all entries: patent US10759794B2

I'd appreciate it if you could supply IC50 values for the items below.
- Tgt: human TASK-1 (Homo sapiens (Human), UniProt O14649)
- Sequence (O14649 whole entry): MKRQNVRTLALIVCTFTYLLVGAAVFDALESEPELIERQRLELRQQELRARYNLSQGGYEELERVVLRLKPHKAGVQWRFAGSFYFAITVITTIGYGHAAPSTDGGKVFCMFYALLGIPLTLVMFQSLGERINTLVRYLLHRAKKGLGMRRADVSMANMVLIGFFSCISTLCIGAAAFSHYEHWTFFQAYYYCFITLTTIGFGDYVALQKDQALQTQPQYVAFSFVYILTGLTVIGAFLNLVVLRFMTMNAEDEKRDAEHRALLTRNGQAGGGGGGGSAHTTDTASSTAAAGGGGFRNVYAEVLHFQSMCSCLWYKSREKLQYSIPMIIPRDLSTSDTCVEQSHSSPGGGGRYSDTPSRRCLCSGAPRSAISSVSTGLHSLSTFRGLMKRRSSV
- Procedure details: Inhibition of recombinant TASK-1 in stably transfected CHO cells (voltage-sensitive dye, FLIPR)
- Type: cell-based
- Condition notes: depolarization induced by 40 mM potassium chloride, Table 2A
- Method: B-2. Inhibition of Recombinant TASK-1 and TASK-3 In Vitro The investigations on the inhibition of the recombinant TASK-1 and TASK-3 channels were carried out using stably transfected CHO cells. […] 6 (5), 305-312 (2001); Molecular Devices FLIPR Application Note: Measuring membrane potential using the FLIPR® membrane potential assay kit on Fluorometric Imaging Plate Reader (FLIPR®) systems, http://www.moleculardevices.com/reagents-supplies/assay-kits/ion-channels/flipr-membrane-potential-assay-kits]. […]
Don't forget the unit after the value.

Specify IC50 for COc1cccc(C(=O)N2CCN(Cc3c(-c4ccc(C)cc4)nc4ccccn34)CC2)n1 and stop. 800 nM

Specify IC50 for N#Cc1ccc(-c2nc3ccccn3c2CN2CCN(C(=O)C3CCCCC3)CC2)cc1 and stop. 1300 nM

Specify IC50 for COc1cccc(C(=O)N2CCN(Cc3c(-c4ccc(Cl)cc4)nc4ccccn34)CC2)n1 and stop. 139 nM

Specify IC50 for O=C(C1CCCO1)N1CCN(Cc2c(-c3ccc(Cl)cc3)nc3ccccn23)CC1 (stereo not shown) and stop. 1250 nM
